# assay overview: Area under the light absorbance spectrum curve of a 0.001 w/v % aqueous solution (UV meter, trapezoidal formula)
# Type: physicochemical
# condition set: 0.001 w/v % aqueous solution of the added compound
parameter measured: area under the spectrum curve at the wavelength range of 220 nm to 240 nm

# molecule, observed measurement
records = [
    ("O=S(=O)([O-])c1cc(S(=O)(=O)[O-])c2c(N=Nc3ccc(S(=O)(=O)[O-])c4ccccc34)c(O)ccc2c1.[Na+].[Na+].[Na+] [Food Red No. 102]", 10.0),
    ("OC[C@@H](O)[C@@H](O)[C@H](O)[C@H](O)CO [mannitol, reference compound]", 0.1),
    ("Cc1cc(S(=O)(=O)[O-])c2c(C)ccc(C(C)C)cc1-2.[Na+] [sodium azulene sulfonate]", 8.4),
    ("O=C([O-])c1ccccc1-c1c2cc(I)c(=O)c(I)c-2oc2c(I)c([O-])c(I)cc12.[Na+].[Na+] [Food Red No. 3, reference compound]", 4.2),
]

* * *

area under the spectrum curve at the wavelength range of 280 nm to 300 nm by entry:
# assay overview: Area under the light absorbance spectrum curve of a 0.001 w/v % aqueous solution (UV meter, trapezoidal formula)
# Assay type: physicochemical
# condition set: 0.001 w/v % aqueous solution of the added compound
parameter measured: area under the spectrum curve at the wavelength range of 280 nm to 300 nm

# compound, observed measurement
records = [
    ("Cc1cc(S(=O)(=O)[O-])c2c(C)ccc(C(C)C)cc1-2.[Na+] [sodium azulene sulfonate]", 19.9),
    ("O=C([O-])c1ccccc1-c1c2cc(I)c(=O)c(I)c-2oc2c(I)c([O-])c(I)cc12.[Na+].[Na+] [Food Red No. 3, reference compound]", 1.8),
    ("OC[C@@H](O)[C@@H](O)[C@H](O)[C@H](O)CO [mannitol, reference compound]", 0.1),
    ("O=S(=O)([O-])c1cc(S(=O)(=O)[O-])c2c(N=Nc3ccc(S(=O)(=O)[O-])c4ccccc34)c(O)ccc2c1.[Na+].[Na+].[Na+]", 3.1),
]
